Where do these numbers come from? They come from patent US7696339B2.

Target: human GPR103 (Homo sapiens)
Construct: expressed in transfected cells; host or cells: CHO cells, Geneticin-selected, single clone by limiting dilution
Sequence (Q96P65 1-431): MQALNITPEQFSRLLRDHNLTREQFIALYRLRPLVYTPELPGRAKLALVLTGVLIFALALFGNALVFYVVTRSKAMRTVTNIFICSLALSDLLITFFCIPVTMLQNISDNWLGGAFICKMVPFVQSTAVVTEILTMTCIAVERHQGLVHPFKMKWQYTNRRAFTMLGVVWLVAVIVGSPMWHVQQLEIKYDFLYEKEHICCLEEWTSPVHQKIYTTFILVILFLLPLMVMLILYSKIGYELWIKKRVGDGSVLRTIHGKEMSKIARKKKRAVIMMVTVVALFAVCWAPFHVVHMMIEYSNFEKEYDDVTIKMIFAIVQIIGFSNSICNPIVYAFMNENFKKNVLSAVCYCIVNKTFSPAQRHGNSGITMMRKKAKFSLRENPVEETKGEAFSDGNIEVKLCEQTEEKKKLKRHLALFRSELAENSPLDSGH
Assay: Intracellular calcium ion concentration increasing activity (FLIPR) in human GPR103 gene-expressing CHO cells
Format: cell-based
Conditions: Fluo4, read-out: 50% effective concentration, intracellular calcium ion concentration increasing activity
pEC50: −log10 of the molar value. Square brackets hold non-standard residues; d marks the D form. pGlu = O=C1CC[C@@H](C(=O)O)N1

Substance	pEC50
H-ASGPLGNLAEELNGYSRKKGGFSFRF-NH2 [monkey QRFP26]	8.77
[pGlu]DEGSEADDFLPAGGVKASGPLGNLAEELNGYSRKKGGFSFRF-NH2 [monkey QRFP43]	7.24
